- TEST SYSTEM: human Focal Adhesion Kinase (FAK) (Homo sapiens, UniProt Q05397)
- Construct: FAK (full length human cDNA described by Andre et al)
- Sequence (Q05397 whole entry): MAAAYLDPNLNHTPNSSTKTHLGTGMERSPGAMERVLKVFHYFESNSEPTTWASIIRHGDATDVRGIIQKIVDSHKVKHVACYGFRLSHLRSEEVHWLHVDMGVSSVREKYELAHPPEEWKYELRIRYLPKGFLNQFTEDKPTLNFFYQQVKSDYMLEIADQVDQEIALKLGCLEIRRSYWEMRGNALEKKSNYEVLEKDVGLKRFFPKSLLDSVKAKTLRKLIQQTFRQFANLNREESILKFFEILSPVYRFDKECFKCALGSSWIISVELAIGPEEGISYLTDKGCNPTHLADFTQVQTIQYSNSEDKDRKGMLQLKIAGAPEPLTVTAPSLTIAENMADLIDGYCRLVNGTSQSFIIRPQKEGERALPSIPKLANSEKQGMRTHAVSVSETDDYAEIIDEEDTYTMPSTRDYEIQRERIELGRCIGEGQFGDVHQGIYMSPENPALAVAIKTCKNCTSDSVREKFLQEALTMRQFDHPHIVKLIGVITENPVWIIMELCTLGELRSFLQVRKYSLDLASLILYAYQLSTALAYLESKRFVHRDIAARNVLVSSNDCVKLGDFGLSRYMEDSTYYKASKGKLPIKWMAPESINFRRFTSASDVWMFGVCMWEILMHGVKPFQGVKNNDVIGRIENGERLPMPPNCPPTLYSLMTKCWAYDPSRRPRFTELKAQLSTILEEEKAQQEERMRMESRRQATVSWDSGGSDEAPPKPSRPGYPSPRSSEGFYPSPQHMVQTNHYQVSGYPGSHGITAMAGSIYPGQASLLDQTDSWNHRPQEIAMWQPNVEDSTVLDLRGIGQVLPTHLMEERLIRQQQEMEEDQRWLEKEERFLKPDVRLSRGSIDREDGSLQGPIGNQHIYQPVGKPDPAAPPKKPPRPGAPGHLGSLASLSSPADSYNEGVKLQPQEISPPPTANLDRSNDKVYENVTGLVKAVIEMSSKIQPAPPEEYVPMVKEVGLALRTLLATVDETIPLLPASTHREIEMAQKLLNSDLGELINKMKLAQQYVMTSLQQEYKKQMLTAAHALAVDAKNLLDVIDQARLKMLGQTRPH
- TEST DETAILS: FAK3 Kinase Inhibition Assay
- SETTINGS: in vitro enzyme assay; read-out: FAK inhibitory activity IC50

{"COMPOUND": "CN(C)CC(O)COc1ccc(Nc2ncc(Br)c(Sc3ccccc3)n2)cc1 (stereo not shown) [Example 14]", "IC50 [nM]": 366}
